Test system: OVCAR-8 ovarian
Experiment: NCI-60 one-dose screen, 48 h (100 = growth as untreated, 0 = no growth, -100 = all killed)
Details: 10 µM unless noted
This is part of a sample that, as a whole, favours compounds with a hit. Of some 83,000 tested, about 20% had one in any assay.
recorded-metric: growth (%)
Report the value in % with no unit label.

compound	growth [%]
CN(C)CCCN=c1cc2c(=O)n(CCCN(C)C)c(=O)c3c(NCCCN(C)C)cc4c(O)n(CCCN(C)C)c(=O)c1c4c3-2	5.35
COC(=O)c1cc2oc(/C=N\NC(=O)c3cc4oc(C)c(C)c4[nH]3)cc2[nH]1	108
CS(=O)(=O)N1CCN(Cc2cc3nc(-c4cccc5[nH]ncc45)nc(N4CCOCC4)c3s2)CC1 (tested in a mixture with another compound)	26.1
O=C1C(=O)c2c(nc3ccc(Cl)cn23)-c2ccccc21	-100
C=C(CN1CCc2c([nH]c3ccccc23)C1)c1ccc(C(=O)Nc2ccon2)cc1	78.2

Any idea what its growth is? The compound is `COc1cnc2c(c1)C(=O)c1c-2n(CCCn2ccnc2)c(=O)c2cc(F)ccc12`
5.92

Consider the compound CC(NNC(=S)N1CCCCCC1)c1ccc2ccccc2n1 (stereo not given) and give its measured growth.
18.1

growth for `COc1ccc2c3c(ccc2c1)C(=O)/C(=C\O)CC3` ?
97.4

// returns reported growth for input `Cc1cnc2nc(-c3ccc(N(C)C)cc3)cn2c1`
103

Given the entry `N/C(=N\c1nc2ccccc2s1)NC(=O)Nc1ccccc1Cl` , report its measured growth.
15.5

Query: growth; subject: `Cc1nn(-c2ccccc2)c2nc(N)c(C3=NCCO3)nc12`
95.9

What value of growth has been reported for the following compound? `CC(=O)Nc1ccc(C(=O)COc2ccc(/C=C3\CCc4ccccc4C3=O)cc2)cc1`
98.8

Entry `O=C(N/N=C/c1ccc(Cl)cc1Cl)c1ccccc1Nc1cccc(C(F)(F)F)c1` : reported growth = ?
71.6

# lookup: growth of C[N+]1(C)C2CC[C@@H]1CC(OC(=O)C(O)c1ccccc1)C2 (stereo not given in full)
108

Please report the recorded growth for `N#Cc1ccccc1C#Cc1ccccc1C#Cc1ccc(OCCCCCCOc2ccc(C#Cc3ccccc3C#Cc3ccccc3C#N)cc2)cc1` .
98.7

// lookup growth for Cc1ccc2c(c1)C(=O)/C(=C\Nc1ccc(C(N)=O)cc1)C(O)O2 (stereo not given)
97.1

For `Cc1ccc(/C=C(/C#N)n2nnc3ncccc32)cc1` , what is its reported growth?
-1.49

Quick one: growth for `O=C(Nc1cccc(Cl)c1)Nc1cccc(Cl)c1` ?
77

Name the reported growth value associated with the compound `O=C(O)c1ccc(CNS(=O)(=O)c2ccc3ccccc3c2)cc1`
67.7

Suppose we examine the compound `O=C1/C(=C/c2cccc(Cl)c2)CCc2ccccc21` ; what growth value has been reported?
91.1

Which growth is reported for this compound? `Cc1[nH]cnc1/C=C1\SC(N2CCCCC2)=NC1=O`
105

What growth value was documented for this compound, `CCOc1cc(/C=C/C(=O)C(C(=O)/C=C/c2ccc(OC(=O)CNc3nnc(C)s3)c(OCC)c2)C(=O)CNc2nnc(C)s2)ccc1OC(=O)CNc1nnc(C)s1` ?
2.17

growth for C#C[C@]1(O)CCC2C3CCc4cc(O)ccc4C3CC[C@@]21C (stereo not given in full) ?
47.5

growth for `CC(=O)OCC(=O)[C@@]1(O)CC[C@H]2[C@@H]3CCC4=CC(=O)CC[C@]4(C)[C@@]3(F)[C@@H](O)C[C@@]21C` ?
93.8

What measured growth goes with `O=C(Nc1ccccc1OC(=O)c1ccccc1)c1ccccc1` ?
92.6

What value of growth has been reported for the following compound? `COc1ccc2c(c1)c(CC(=O)[Se]C)c(C)n2C(=O)c1ccc(Cl)cc1`
-46.9
